Origin of the recorded values: patent US12258327B2

- measured-target: EGFR del19/C797S (Homo sapiens, UniProt P00533, C797S/DEL746-750)
- Sequence (P00533 with tags, fused parts or gaps DEL746-750/C797S): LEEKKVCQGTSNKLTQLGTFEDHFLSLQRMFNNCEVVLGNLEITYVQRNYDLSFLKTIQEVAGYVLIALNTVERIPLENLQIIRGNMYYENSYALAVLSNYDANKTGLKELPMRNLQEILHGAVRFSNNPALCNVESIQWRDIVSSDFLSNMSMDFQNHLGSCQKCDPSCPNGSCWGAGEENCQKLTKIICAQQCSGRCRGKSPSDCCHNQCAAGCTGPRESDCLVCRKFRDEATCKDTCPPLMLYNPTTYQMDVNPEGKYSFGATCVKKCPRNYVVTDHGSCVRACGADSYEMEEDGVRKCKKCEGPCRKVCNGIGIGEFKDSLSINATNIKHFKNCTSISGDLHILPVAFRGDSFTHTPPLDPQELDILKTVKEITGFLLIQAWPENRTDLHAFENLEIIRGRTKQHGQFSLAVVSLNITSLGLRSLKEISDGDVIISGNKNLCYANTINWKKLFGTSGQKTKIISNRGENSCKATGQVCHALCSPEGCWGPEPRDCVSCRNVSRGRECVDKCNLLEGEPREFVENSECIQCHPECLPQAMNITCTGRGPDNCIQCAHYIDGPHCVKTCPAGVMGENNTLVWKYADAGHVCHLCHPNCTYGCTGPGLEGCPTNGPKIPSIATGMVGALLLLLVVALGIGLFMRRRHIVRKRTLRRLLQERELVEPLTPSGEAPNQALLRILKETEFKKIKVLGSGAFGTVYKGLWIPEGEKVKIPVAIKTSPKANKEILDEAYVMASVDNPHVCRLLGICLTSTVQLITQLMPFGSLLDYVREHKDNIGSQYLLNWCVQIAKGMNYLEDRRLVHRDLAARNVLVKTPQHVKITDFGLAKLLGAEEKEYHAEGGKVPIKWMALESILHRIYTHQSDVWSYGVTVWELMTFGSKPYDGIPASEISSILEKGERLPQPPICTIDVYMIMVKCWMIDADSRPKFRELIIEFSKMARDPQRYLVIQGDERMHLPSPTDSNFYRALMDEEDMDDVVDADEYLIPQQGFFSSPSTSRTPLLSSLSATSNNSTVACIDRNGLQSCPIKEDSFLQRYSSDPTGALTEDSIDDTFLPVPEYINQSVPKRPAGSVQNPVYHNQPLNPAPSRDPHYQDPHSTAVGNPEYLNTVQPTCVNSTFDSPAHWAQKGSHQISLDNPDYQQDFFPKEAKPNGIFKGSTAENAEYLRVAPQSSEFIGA
- experiment-summary: Biochemical EGFR kinase assay (Lance Ultra TR-FRET), double mutant del19/C797S
- condition-info: IC50 del19/C797S (nM) 100 μM ATP, 100 μM ATP
- Experimental: Biochemical EGFR kinase assays were conducted using Lance Ultra time-resolved fluorescence resonance energy transfer (TR-FRET) technology from Perkin-Elmer. […] Each kinase reactions were incubated at room temperature for 1 hour and then stopped by the addition of 4 μL of stop solution (10 mM EDTA). […] After 60 minutes incubation at room temperature the LANCE signal was measured on an EnVision Multilabel Reader (Perkin-Elmer). […]
measured-quantity: IC50 (nM)

a. CO[C@H]1CCN(c2nccc(Nc3cc(N[C@H]4CC[C@@](C)(O)CC4)c(-c4ccn(C(F)F)n4)cn3)n2)C[C@H]1F
b. O=S(=O)(C1CC1)n1cc(-c2nccc(Nc3cc(NC4CCCC4O)c(-c4ccn(C(F)F)n4)cn3)n2)cn1 (stereo not drawn)
c. CN(CC(F)F)C[C@H]1CC[C@@H](Nc2cc(Nc3ccnc(-c4cnn(S(=O)(=O)C5CC5)c4)n3)ncc2-c2ccn(C)n2)CC1
From the records above, write out the order of decreasing IC50. The reply should contain the labels ordered as requested.
a, b, c
(a: 253 nM, b: 77.1 nM, c: 6.7 nM)

---

- measured-target: EGFR del19/T790M/C797S (Homo sapiens, UniProt P00533, C797S/DEL746-750/T790M)
- Sequence (P00533 with tags, fused parts or gaps DEL746-750/T790M/C797S): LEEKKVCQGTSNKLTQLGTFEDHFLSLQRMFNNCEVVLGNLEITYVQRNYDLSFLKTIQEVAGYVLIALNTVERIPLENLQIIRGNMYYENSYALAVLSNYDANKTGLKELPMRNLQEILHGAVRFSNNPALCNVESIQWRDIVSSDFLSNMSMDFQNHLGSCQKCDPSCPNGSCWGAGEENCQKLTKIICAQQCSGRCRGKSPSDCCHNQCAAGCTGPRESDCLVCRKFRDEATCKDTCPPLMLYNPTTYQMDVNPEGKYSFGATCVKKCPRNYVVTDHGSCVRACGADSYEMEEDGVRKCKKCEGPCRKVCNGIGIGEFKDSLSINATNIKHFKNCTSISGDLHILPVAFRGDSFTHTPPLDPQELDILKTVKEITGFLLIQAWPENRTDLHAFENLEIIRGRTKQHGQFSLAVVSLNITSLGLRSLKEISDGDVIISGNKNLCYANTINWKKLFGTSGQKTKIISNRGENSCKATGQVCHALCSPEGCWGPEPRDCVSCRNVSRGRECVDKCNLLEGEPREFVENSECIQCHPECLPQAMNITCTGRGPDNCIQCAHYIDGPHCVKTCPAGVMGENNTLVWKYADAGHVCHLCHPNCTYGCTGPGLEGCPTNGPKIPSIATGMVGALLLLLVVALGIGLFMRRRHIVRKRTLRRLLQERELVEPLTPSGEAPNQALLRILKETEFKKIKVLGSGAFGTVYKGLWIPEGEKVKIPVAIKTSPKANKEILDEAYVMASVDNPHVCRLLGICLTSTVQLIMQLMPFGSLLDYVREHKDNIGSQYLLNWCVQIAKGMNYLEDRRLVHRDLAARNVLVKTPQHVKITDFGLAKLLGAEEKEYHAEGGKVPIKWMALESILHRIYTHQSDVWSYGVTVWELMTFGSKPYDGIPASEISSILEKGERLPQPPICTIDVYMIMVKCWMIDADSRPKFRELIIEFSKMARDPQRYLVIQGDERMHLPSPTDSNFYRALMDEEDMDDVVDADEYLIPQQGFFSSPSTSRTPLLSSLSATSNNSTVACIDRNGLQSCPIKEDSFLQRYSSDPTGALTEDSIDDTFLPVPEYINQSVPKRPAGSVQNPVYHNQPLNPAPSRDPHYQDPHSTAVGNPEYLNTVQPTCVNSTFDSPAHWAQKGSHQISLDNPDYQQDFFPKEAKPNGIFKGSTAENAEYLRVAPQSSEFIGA
- experiment-summary: Biochemical EGFR kinase assay (Lance Ultra TR-FRET), triple mutant del19/T790M/C797S
- condition-info: Km ATP; read-out: IC50 del19/T790M/C797S (nM) Km ATP
- Experimental: Biochemical EGFR kinase assays were conducted using Lance Ultra time-resolved fluorescence resonance energy transfer (TR-FRET) technology from Perkin-Elmer. […] Each kinase reactions were incubated at room temperature for 1 hour and then stopped by the addition of 4 μL of stop solution (10 mM EDTA). […] After 60 minutes incubation at room temperature the LANCE signal was measured on an EnVision Multilabel Reader (Perkin-Elmer). […]
measured-quantity: IC50 (nM)

Cn1nc(-c2cnc(Nc3ccnc(-c4cnn(S(=O)(=O)C5CC5)c4)n3)cc2N[C@H]2CC[C@@H](NCCF)CC2)cc1C(F)(F)F [Example 255]; 0.6
O=S(=O)(C1CC1)n1cc(-c2nccc(Nc3cc(NCC4CCCC(O)C4)c(-c4ccn(C(F)F)n4)cn3)n2)cn1 (stereo not drawn) [Example 32]; 0.5
CS(=O)(=O)N1CCC(c2nccc(Nc3cc(N[C@H]4CC[C@@](C)(O)CC4)c(-c4ccn(C(F)F)n4)cn3)n2)CC1 [Example 158]; 110

A. CN(C)CC1(C)CCC(Nc2cc(Nc3ccnc(-c4cnn(S(=O)(=O)C5CC5)c4)n3)ncc2-c2ccn(C(F)F)n2)CC1 (stereo not drawn) [Example 207]
B. CN(C)C[C@H]1C[C@H](CNc2cc(Nc3ccnc(-c4cnn(S(=O)(=O)C5CC5)c4)n3)ncc2-c2ccn(CC(F)F)n2)C1 [Example 249]
C. Cn1ccc(-c2cnc(Nc3ccnc(-c4cnn(S(=O)(=O)C5CC5)c4)n3)cc2N[C@H]2CC[C@@H](F)CC2)n1 [Example 174]
Exam item: list the entries in increasing order of IC50. Answer by naming the labels in the order asked.
B, A, C
(B: 0.4 nM, A: 0.8 nM, C: 1.4 nM)

---

- measured-target: EGFR L858R/C797S (Homo sapiens, UniProt P00533, C797S/L858R)
- Sequence (P00533 25-1210 C797S/L858R): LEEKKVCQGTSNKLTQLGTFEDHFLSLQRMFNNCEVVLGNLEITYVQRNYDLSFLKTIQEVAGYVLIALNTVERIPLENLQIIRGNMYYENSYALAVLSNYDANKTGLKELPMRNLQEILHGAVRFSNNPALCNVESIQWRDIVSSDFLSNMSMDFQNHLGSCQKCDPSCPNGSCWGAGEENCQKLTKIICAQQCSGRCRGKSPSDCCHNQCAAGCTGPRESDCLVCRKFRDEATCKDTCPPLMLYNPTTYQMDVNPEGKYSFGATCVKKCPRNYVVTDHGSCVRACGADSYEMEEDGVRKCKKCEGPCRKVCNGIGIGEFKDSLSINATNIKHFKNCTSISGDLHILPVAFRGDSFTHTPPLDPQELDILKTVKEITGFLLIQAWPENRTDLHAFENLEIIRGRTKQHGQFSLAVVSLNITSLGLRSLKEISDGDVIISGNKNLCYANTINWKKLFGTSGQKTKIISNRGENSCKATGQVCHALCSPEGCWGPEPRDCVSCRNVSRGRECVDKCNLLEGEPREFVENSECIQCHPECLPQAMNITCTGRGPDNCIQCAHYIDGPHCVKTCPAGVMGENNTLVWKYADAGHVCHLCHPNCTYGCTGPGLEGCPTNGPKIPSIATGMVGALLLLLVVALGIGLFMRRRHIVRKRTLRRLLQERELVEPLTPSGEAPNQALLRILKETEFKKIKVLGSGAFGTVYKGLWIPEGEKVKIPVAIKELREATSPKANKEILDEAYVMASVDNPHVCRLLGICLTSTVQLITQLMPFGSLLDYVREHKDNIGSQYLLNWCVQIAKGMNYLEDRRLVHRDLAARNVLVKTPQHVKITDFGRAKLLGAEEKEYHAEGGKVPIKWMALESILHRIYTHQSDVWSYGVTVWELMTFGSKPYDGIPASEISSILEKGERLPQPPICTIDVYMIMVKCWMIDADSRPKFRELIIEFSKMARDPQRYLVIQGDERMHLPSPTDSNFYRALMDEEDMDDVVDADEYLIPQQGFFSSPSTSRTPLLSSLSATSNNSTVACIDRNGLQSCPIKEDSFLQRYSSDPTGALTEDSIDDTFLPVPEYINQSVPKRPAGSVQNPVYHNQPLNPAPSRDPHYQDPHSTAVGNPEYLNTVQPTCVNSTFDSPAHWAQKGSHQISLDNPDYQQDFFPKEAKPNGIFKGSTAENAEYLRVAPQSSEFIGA
- experiment-summary: Biochemical EGFR kinase assay (Lance Ultra TR-FRET), double mutant L858R/C797S
- condition-info: Km ATP; read-out: IC50 L858R/C797S, Km ATP
pIC50: −log10 of the molar value.
measured-quantity: pIC50

COCn1ccc(-c2cnc(Nc3ccnc(-c4cnn(S(=O)(=O)C5CC5)c4)c3)nc2N[C@H]2CC[C@@](C)(O)CC2)n1 [Example 358]; 8.43
Cc1nn(CC(F)(F)F)cc1-c1nccc(Nc2cc(N[C@H]3CC[C@@H](CCO)CC3)c(-c3ccn(CC(F)F)n3)cn2)n1 [Example 337]; 8.43
C[C@]1(O)CC[C@@H](Nc2cc(Nc3ccnc(N4CCC[C@H](O)C4)n3)ncc2-c2ccn(C(F)F)n2)CC1 [Example 351]; 7.35
O=S(=O)(C1CC1)n1cc(-c2nccc(Nc3cc(N[C@H]4C[C@@H](CO)C4)c(-c4ccn(C(F)F)n4)cn3)n2)cn1 [Example 377]; 8.24
C[C@]1(CO)C[C@@H](Nc2cc(Nc3ccnc(-c4cnn(S(=O)(=O)C5CC5)c4)n3)ncc2-c2ccn(C(F)F)n2)C1 [Example 378]; 7.84

I. FC(F)Cn1cc(-c2nccc(Nc3cc(N[C@H]4CC[C@@H](F)CC4)c(-c4ccn(CC(F)(F)F)n4)cn3)n2)cn1 [Example 339]
II. Cc1nn(CC(F)(F)F)cc1-c1cc(Nc2ncc(-c3ccn(CC(F)(F)F)n3)c(N[C@H]3CC[C@@](C)(O)CC3)n2)ccn1 [Example 370]
III. Cc1nn(CC(F)(F)F)cc1-c1nccc(Nc2cc(N[C@H]3CC[C@@](C)(O)CC3)c(-c3ccn(C(F)F)n3)nn2)n1 [Example 375]
Reorder: pIC50, max to min. Output spec: a listing of the labels in the requested order.
II, III, I

---

- measured-target: EGFR del19/C797S (Homo sapiens, UniProt P00533, C797S/DEL746-750)
- experiment-summary: Biochemical EGFR kinase assay (Lance Ultra TR-FRET), double mutant del19/C797S
- condition-info: Km ATP; read-out: IC50 del19/C797S (nM) Km ATP
measured-quantity: IC50 (nM)

Example molecules with recorded IC50:
C[C@]1(O)CC[C@@H](Nc2cc(Nc3ccnc(-c4cnn(C5CC5)c4)n3)ncc2-c2ccn(C(F)F)n2)CC1 [Example 140]; 27.3
C[C@]1(O)CC[C@@H](Nc2cc(Nc3ccnc(-c4ccc(F)nc4F)n3)ncc2-c2ccn(C(F)F)n2)CC1 [Example 170]; 1340
CNC(=O)[C@H]1CC[C@@H](Nc2cc(Nc3ccnc(-c4cnn(S(=O)(=O)C5CC5)c4)n3)ncc2-c2ccn(C(F)F)n2)CC1 [Example 24]; 0.7

P. C[C@]1(O)CC[C@@H](Nc2cc(Nc3ccnc(-c4cnn(C(F)F)c4)n3)ncc2-c2ccn(C(F)F)n2)CC1 [Example 149]
Q. CS(=O)(=O)c1ccn(-c2cnc(Nc3ccnc(-c4cnn(S(=O)(=O)C5CC5)c4)n3)cc2N[C@H]2CC[C@@](C)(O)CC2)n1 [Example 183]
Between the entries labeled P and Q , whose measured IC50 is lower? Write down the label of the entry you select.
Q

---

- measured-target: EGFR del19/C797S (Homo sapiens, UniProt P00533, C797S/DEL746-750)
- experiment-summary: Biochemical EGFR kinase assay (Lance Ultra TR-FRET), double mutant del19/C797S
- condition-info: IC50 del19/C797S (nM) 100 μM ATP, 100 μM ATP
measured-quantity: IC50 (nM)

Cn1ccc(-c2cnc(Nc3ccnc(-c4cnn(S(=O)(=O)C5CC5)c4)n3)cc2N[C@H]2CC[C@@H](CCO)CC2)n1 [Example 136]; 1.2
O=S(=O)(C1CC1)n1cc(-c2nccc(Nc3cc(N[C@H]4CC[C@@H](O)CC4)c(-c4ccco4)cn3)n2)cn1 [Example 83]; 1.9
CN(C)C[C@H]1C[C@@H](CNc2cc(Nc3ccnc(-c4cnn(S(=O)(=O)C5CC5)c4)n3)ncc2-c2ccn(C)n2)C1 [Example 234]; 1.7

---

- measured-target: EGFR del19/T790M/C797S (Homo sapiens, UniProt P00533, C797S/DEL746-750/T790M)
- experiment-summary: Biochemical EGFR kinase assay (Lance Ultra TR-FRET), triple mutant del19/T790M/C797S
- condition-info: IC50 del19/T790M/C797S (nM) 100 μM ATP, 100 μM ATP
measured-quantity: IC50 (nM)

Cc1cc(-c2cnc(Nc3ccnc(-c4cnn(S(=O)(=O)C5CC5)c4)n3)cc2N[C@H]2CC[C@@](C)(O)CC2)nn1C; 0.4
CC1(N)CCC(Oc2cc(Nc3ccnc(-c4cnn(S(=O)(=O)C5CC5)c4)n3)ncc2-c2cnn(C(F)F)c2)CC1 (stereo not drawn); 8.3
C[C@]1(O)CC[C@@H](Nc2cc(Nc3ccnc(-c4cnn(S(=O)(=O)C5CC5)c4)n3)ncc2-c2ccn(C3CC3)n2)CC1; 0.1

a. CCOC(=O)c1ccn(-c2cnc(Nc3ccnc(-c4cnn(S(=O)(=O)C5CC5)c4)n3)cc2N[C@H]2CC[C@@](C)(O)CC2)n1
b. CN(CC(F)F)C[C@H]1CC[C@@H](Nc2cc(Nc3ccnc(-c4cnn(S(=O)(=O)C5CC5)c4)n3)ncc2-c2ccn(C(F)F)n2)CC1
c. COCn1cc(-c2nccc(Nc3cc(N[C@H]4CC[C@@](C)(O)CC4)c(-c4ccn(C(F)F)n4)cn3)n2)cn1
d. O=S(=O)(C1CC1)n1cc(-c2nccc(Nc3cc(N[C@H]4CC[C@@H](CN5CCC5)CC4)c(-c4ccn(CC(F)F)n4)cn3)n2)cn1
Number of compounds to sort: 4. Sort criterion: IC50, ascending. In your reply, arrange the labels in the requested order.
d, a, c, b

1. CN(CC(F)F)C[C@H]1CC[C@@H](Nc2cc(Nc3ccnc(-c4cnn(S(=O)(=O)C5CC5)c4)n3)ncc2-c2cc(C(F)(F)F)n(C)n2)CC1
2. Cn1nc(-c2cnc(Nc3ccnc(-c4cnn(S(=O)(=O)C5CC5)c4)n3)cc2N[C@H]2CC[C@@H](CO)CC2)cc1C(F)(F)F
Select one. Lower IC50: 1 or 2 Identify your pick by its label.
2
(2: 1.1 nM, 1: 172 nM)
